Test system: NCI-H226 lung
TEST NAME: NCI-60 one-dose screen, 48 h
CONDITION DETAILS: 10 µM unless noted
Compounds without any hit were thinned out: in the full panel of roughly 83,000, 20% have a hit. Active and inactive are the calls of the source. How the source made its calls: active means growth percent below 10; inactive means the rest.
Pick from TRUE for active, FALSE for inactive when you respond.

-- ask For this compound, state the assay outcome: CCCC(=O)Oc1ccc(/C(=C(/CC)Cc2ccccc2)c2ccc(OCCN3CCCC3)cc2)cc1
-- reply FALSE

-- ask For this compound, state the assay outcome: C=C1CC[C@@H]2[C@](C)(COC(C)=O)[C@H](OC(C)=O)CC[C@@]2(C)[C@@H]1CC(Nc1ccc(S(=O)(=O)Nc2ccc(Cl)nn2)cc1)C1=CCOC1=O (stereo not given in full)
-- reply TRUE

-- ask For this compound, state the assay outcome: Cc1cc2cc3cc(C)c(N(C)C)cc3[n+](C)c2cc1N(C)C
-- reply FALSE

-- ask For this compound, state the assay outcome: COc1cccc(/C=C2/C(=O)N(Cc3ccco3)SC2=S)c1OC
-- reply FALSE

-- ask For this compound, state the assay outcome: COc1cc(-c2cnc3nonc3n2)c(OC)c2c1OCO2
-- reply FALSE

-- ask For this compound, state the assay outcome: COc1ccc(CN(c2ccc(C)cc2)C2OC(=O)c3ccccc32)cc1OC (stereo not given)
-- reply FALSE

-- ask For this compound, state the assay outcome: COc1ccc(-c2cc(-c3cccnc3)nc3sc4c(=O)n(-c5ccc(C)cc5)cnc4c23)cc1OC
-- reply FALSE

-- ask For this compound, state the assay outcome: Oc1ccccc1/C=N/Nc1ccc2ccccc2n1
-- reply FALSE

-- ask For this compound, state the assay outcome: Cc1ccc(Nc2c(C(N)=O)cnc3ccc(-c4csc(N)n4)cc23)cc1
-- reply FALSE

-- ask For this compound, state the assay outcome: O=C1Nc2ccccc2C12CC(c1ccc(Cl)cc1)=NN2 (stereo not given)
-- reply FALSE

* * *

Test system: SK-MEL-28 melanoma
TEST NAME: NCI-60 one-dose screen, 48 h (100 = growth as untreated, 0 = no growth, -100 = all killed)
CONDITION DETAILS: 10 µM unless noted
Compounds without any hit were thinned out: in the full panel of roughly 83,000, 20% have a hit.
EXPERIMENTAL ENDPOINT: growth (%)
Express it in %; write the number only.

Lab note: Clc1ccc(-c2nnc(COc3ccccc3Cl)o2)cc1 gave growth of 85.1

Lab note: Cc1cc(N/N=C/c2nc(-c3ccc(Cl)cc3)oc2C)c2cc(Cl)ccc2n1 gave growth of 10.3

Lab note: CNC(=O)c1cc(Oc2ccc3nc(NC(=O)Nc4ccc(N5CCC(N(C)C)CC5)cc4)sc3c2)ccn1 gave growth of 87.7

Lab note: CCCCCn1cnc2c(=S)nc[nH]c21 gave growth of 106

Lab note: Nc1ccc2c(c1)C(=O)NC2=O gave growth of 99.8

Lab note: Cc1cc2cc3cc(C)c(N(C)C)cc3nc2cc1N(C)C gave growth of 40.6

Lab note: O=C(/C=C/c1cccc(Br)c1)c1ccccc1 gave growth of 100

Lab note: CC(C)(C)n1cc(-c2ccnc(NCCCNS(=O)(=O)c3cccc4ccccc34)c2)c(-c2cccc(O)c2)n1 gave growth of -37.2

Lab note: O=C1CC(c2nc3ccccc3[nH]2)CN1C1CCCCC1 (stereo not given) gave growth of 112

Lab note: N#CC1=C(N)Oc2c(ccc3ccccc23)C1c1cccs1 (stereo not given) gave growth of 41.1

Lab note: O=C1c2ccccc2-c2nccc3cc(Cl)nc1c23 gave growth of 55.8

Lab note: Cc1ccc(Nc2c(C(N)=O)cnc3ccc(-c4csc(N)n4)cc23)cc1 gave growth of 101

Lab note: CCN(CC)CCCC(C)N/C(=C1\C(=O)NC(=O)\C1=C(/NC(C)CCCN(CC)CC)c1cccc(OC)c1)c1cccc(OC)c1 (stereo not given) gave growth of -83

Lab note: CCCCCCCCOC(=O)CC[C@@H](C)[C@H]1CC[C@H]2[C@@H]3[C@H](OC(=O)CCN)C[C@@H]4C[C@H](OC(=O)CCN)CC[C@]4(C)[C@H]3C[C@H](OC(=O)CCN)[C@]12C gave growth of 58.4

Lab note: O=C1C[C@H](N2C(=O)c3ccccc3S2(=O)=O)C2CO[C@@H]1O2 gave growth of 66.1

Lab note: CC(=O)O[C@H]1CC[C@]2(C)[C@H]3CC[C@@H]4[C@H]5[C@H](C(C)C)CC[C@]5(C(=O)OCC(CO)(CO)N=C(N)N)CC[C@@]4(C)[C@]3(C)CC[C@H]2C1(C)C gave growth of 84.9

Lab note: CNC(=O)c1cc(Oc2ccc3nc(NC(=O)Nc4ccc(CN5CCOCC5)c(C(F)(F)F)c4)sc3c2)ccn1 gave growth of 25.1

Lab note: Clc1cccc(Nc2nc(Nc3cnc4ccccc4c3)c3[nH]cnc3n2)c1 gave growth of 86.4

Lab note: CSc1ccc(N=C=C(c2ccccc2)c2ccccc2)cc1 gave growth of 99.2

Lab note: Nc1cc2ccncc2c2ccccc12 gave growth of 103

* * *

So I've got a bunch of compounds here, and I need their growth values.
System: MALME-3M melanoma
TEST NAME: NCI-60 one-dose screen, 48 h (100 = growth as untreated, 0 = no growth, -100 = all killed)
CONDITION DETAILS: 10 µM unless noted
About 83,000 compounds went through this panel and 20% of them were active in at least one assay; those are over-represented in the sample as a whole. Activity calls are given as the source filed them. How the source made its calls: active means growth percent below 10; inactive means the rest.

Lab note: O=C1c2cc3c(cc2-c2c1c1cc(Cl)c(Cl)cc1c(=O)n2CCCn1ccnc1)OCO3 gave growth of 23.2% (inactive)

Lab note: COc1ccc(-c2nn(-c3ccccc3)cc2/C=C2\SC(=O)NC2=O)cc1 gave growth of 112% (inactive)

Lab note: CCOC(=O)c1c2c(n3ccc(NC(=O)CCN4CCCCC4)cc13)C(=O)c1ncccc1C2=O gave growth of -71.7% (active)

Lab note: O=C(Nc1ccc(F)cc1)Nc1ccc(CCO)cc1 gave growth of 94.3% (inactive)

Lab note: C/C=C/C(N)=O gave growth of 99.7% (inactive)

Lab note: CSc1nc(NCCCNc2ccnc3cc(Cl)ccc23)cc(-c2ccccc2)n1 gave growth of 56.9% (inactive)

Lab note: CCC(c1ccc(O)cc1)C(CC)c1ccc(O)c(F)c1 (stereo unspecified) gave growth of 85.2% (inactive)

Lab note: COC(/C=C/c1ccc([N+](=O)[O-])cc1)OC gave growth of 109% (inactive)

Lab note: CCCN(CCC)CN(CCC)CCC gave growth of 97.6% (inactive)

Lab note: O=C(Nc1cccc2[nH]c(C(F)(F)F)nc12)c1ccc(Br)cc1F gave growth of 17.9% (inactive)

Lab note: Cc1[nH]n(-c2ccccc2)c2nc3nncc3c(-c3ccc(Cl)cc3)c12 gave growth of 132% (inactive)

Lab note: C=C1CC2(OC1=O)C(=O)N(CCCCCCCN1C(=O)C3(CC(=C)C(=O)O3)c3ccccc31)c1ccccc12 (stereo unspecified) gave growth of -61.4% (active)

Lab note: CCOC(=O)Cc1cnn(C)c1NC(=O)c1ccc(Cl)cc1NC(C)=O gave growth of 105% (inactive)

Lab note: COc1cc(/C=N\NC(=O)CN2CCN(c3cc4c(cc3F)c(=O)c(C(=O)N/N=C/c3ccc(O)c(OC)c3)cn4C3CC3)CC2)ccc1O gave growth of 62.4% (inactive)

Lab note: CC(=O)C1=C(O)C=C2Oc3c(C(=O)/C=C/c4cc(C(F)(F)F)cc(C(F)(F)F)c4)c(O)c(C)c(O)c3[C@]2(C)C1=O gave growth of -65.6% (active)

Lab note: COc1ccc(-c2cc(-c3ccc(N(C)C)cc3)nc(NC(=O)c3ccncc3)n2)cc1 gave growth of 119% (inactive)

Lab note: COc1cc(OC)c(/C=C/S(=O)(=O)Cc2ccc(OC)c(N)n2)c(OC)c1 gave growth of 59.2% (inactive)

Lab note: COc1cc2c(c(OC)c1OC)-c1ccc(N=NC(N)=S)c(=O)cc1[C@@H](NC(C)=O)CC2 gave growth of 61.2% (inactive)

Lab note: CN1CCCCC1CCN1c2ccccc2Sc2ccc(Cl)cc21 (stereo unspecified) gave growth of 83.2% (inactive)

Lab note: CCCNc1nc(SC)nc(-c2cccc(N)c2)c1C#N gave growth of 98% (inactive)

Lab note: O=C1C2CC=CCC2C(=O)N1CNc1ccc(Cl)cc1 (stereo unspecified) gave growth of 87.6% (inactive)

* * *

Test system: MCF7 breast
TEST NAME: NCI-60 one-dose screen, 48 h (100 = growth as untreated, 0 = no growth, -100 = all killed)
CONDITION DETAILS: 10 µM unless noted
Compounds without any hit were thinned out: in the full panel of roughly 83,000, 20% have a hit.
EXPERIMENTAL ENDPOINT: growth (%)
Express it in %; write the number only.

Lab note: Cc1ccc2c(c1)C(=O)/C(=C/c1ccc(OCC(=O)c3ccccc3)cc1)O2 gave growth of 88.7

Lab note: CC(=O)OC1Oc2cc(C)c(C)cc2-c2oc(=O)c(-c3cc4ccc(N(C)C)cc4oc3=O)cc21 (centres undefined) gave growth of 78.6

Lab note: CN1CCN(Cc2ccc(NC(=O)c3[nH]ncc3Nc3ncnc4[nH]ccc34)cc2)CC1 gave growth of 9.25

Lab note: C=C1CC2(OC1=O)C(=O)N(CCCCCCCCCCCCN1C(=O)C3(CC(=C)C(=O)O3)c3ccccc31)c1ccccc12 (centres undefined) gave growth of 38

Lab note: CCCCCCCCCCCCCCCC(=O)OCC1OC(n2cnc3c(=S)nc(N)[nH]c32)C(OC(=O)CCCCCCCCCCCCCCC)C1OC(=O)CCCCCCCCCCCCCCC (centres undefined) gave growth of 35

Lab note: CN1CCCCC1CCN1c2ccccc2Sc2ccc(Cl)cc21 (centres undefined) gave growth of 21.6

Lab note: C/C(=C(/c1ccc(O)cc1)c1ccc(OCCN2CCCC2)cc1)c1ccccc1 gave growth of 22.2

Lab note: COc1ccc(C2CC(=O)Nc3c2c(C)nn3-c2nc3ccccc3[nH]2)cc1 (centres undefined) gave growth of 91.6

Lab note: Cc1cc(N/N=C/c2nc(-c3ccc(Cl)cc3)oc2C)c2cc(Br)ccc2n1 gave growth of -77.8

Lab note: CC1=CC(=O)CC(C)(C)[C@@]1(O)/C=C/[C@@H](C)O gave growth of 84.6

Lab note: CN1CCN(Cc2ccc(NC(=O)c3cncc(C#Cc4cnc(N)c5cccnc45)c3)cc2C(F)(F)F)CC1 gave growth of 26.8

Lab note: COc1ccc(-c2csc(NC(=O)CN3CCN(c4cc5c(cc4F)c(=O)c(C(=O)O)cn5C4CC4)CC3)n2)cc1 gave growth of 12.8

Lab note: Nc1nc2c(c3ncccc13)C(c1cccc(Br)c1)Cc1ncccc1-2 (centres undefined) gave growth of 16.5

Lab note: CCCNc1nc(SC)nc(-c2cccc(N)c2)c1C#N gave growth of 89.1

Lab note: CC1=C(NCCN2CCCC2)C(=O)c2c(OCc3ccc(F)c(Cl)c3)cccc2C1=O gave growth of 41.3

Lab note: COc1cc(C2CC(=O)Nc3c2cnn3Cc2ccco2)cc2c1OCCO2 (centres undefined) gave growth of 54.1

Lab note: COC(=S)SCN(CSC(=S)OC)c1ccc(Cl)cc1 gave growth of 73.5

Lab note: CC/C=C\C[C@H](O)C/C=C1/C(=O)C=C[C@@H]1C/C=C\CCCC(N)=O gave growth of 7.66

Lab note: NS(=O)(=O)N(c1cc(C(F)(F)F)cc(C(F)(F)F)c1)C1CCN(Cc2ccc(F)cc2)CC1 gave growth of 49.6
